- SYSTEM: T1, rat Ang-2 (rAng-2) (rat, UniProt O35462)
- T1 chain: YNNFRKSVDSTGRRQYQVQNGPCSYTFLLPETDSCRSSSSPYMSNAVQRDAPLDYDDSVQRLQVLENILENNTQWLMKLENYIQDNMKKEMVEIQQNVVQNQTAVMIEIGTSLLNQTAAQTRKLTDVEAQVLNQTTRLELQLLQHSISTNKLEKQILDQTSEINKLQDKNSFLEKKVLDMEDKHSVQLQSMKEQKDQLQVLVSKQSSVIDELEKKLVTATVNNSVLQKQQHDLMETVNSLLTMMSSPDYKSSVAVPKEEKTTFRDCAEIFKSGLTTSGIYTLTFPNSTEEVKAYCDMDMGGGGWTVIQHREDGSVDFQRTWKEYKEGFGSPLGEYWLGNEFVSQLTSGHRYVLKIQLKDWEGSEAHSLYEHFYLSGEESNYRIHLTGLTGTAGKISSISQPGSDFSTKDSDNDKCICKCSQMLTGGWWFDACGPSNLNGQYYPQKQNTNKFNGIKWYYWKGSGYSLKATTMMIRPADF
- EXPERIMENT_SUMMARY: competition ELISA vs Tie-2
Primed or numbered codes have the meaning given here. Where no end group is shown, it is not given here. [ ]: non-standard residue; d: D form. Fc(3) = Fc: non-antigen-binding fragment of an antibody from proteolytic digestion of a whole antibody (vehicle); Fc(4) = non-antigen-binding fragment of an antibody (from proteolytic digestion of a whole antibody); Fc = immunoglobulin Fc domain fused to the peptide (peptibody); Fc″ = Fc domain of the peptibody fusion
MEASURED_ENDPOINT: IC50 (nM)

Look over these answered cases.
BINDER: MGAQHTFQPLDELEETLYYQWLYDQLLEGGGGG-{Fc″} [L1-21 (N)]
UNIT_DESCRIPTOR: nM
IC50: 0.204

BINDER: M[Fc]GGGGGAQTNIQEECEWDPWTCDHMPGKLE (not fully specified; cysteine pairing not given here) [Con4-40 (C)]
UNIT_DESCRIPTOR: nM
IC50: 0.35

BINDER: MGAQQKFQPLDELEQTLYEQFMLQQALEGGGGG[Fc(3)] [L1-10 (N)]
UNIT_DESCRIPTOR: nM
IC50: 0.06

I: MGAQTNFMPMDDLEQRLYEQFILQQGLEGGGGG-Fc [L1-7 (N)]
II: M[Fc(4)]GGGGGAQPIRQEECDWDPWTCEHMWEVLE (not fully specified; cysteine pairing not given here) [Con4-44 (C)]
// query Larger number for IC50: I , or II ? Refer to your chosen item by its label in the answer.
// result II

FYI, the data here is from patent US7205275.
